Biological target: hCRTH2 (Homo sapiens, UniProt Q9Y5Y4)
Construct: expressed in transfected cells; host or cells: HEK (human embryonic kidney) cells expressing hCRTH2; membrane preparation
Sequence (Q9Y5Y4 1-395): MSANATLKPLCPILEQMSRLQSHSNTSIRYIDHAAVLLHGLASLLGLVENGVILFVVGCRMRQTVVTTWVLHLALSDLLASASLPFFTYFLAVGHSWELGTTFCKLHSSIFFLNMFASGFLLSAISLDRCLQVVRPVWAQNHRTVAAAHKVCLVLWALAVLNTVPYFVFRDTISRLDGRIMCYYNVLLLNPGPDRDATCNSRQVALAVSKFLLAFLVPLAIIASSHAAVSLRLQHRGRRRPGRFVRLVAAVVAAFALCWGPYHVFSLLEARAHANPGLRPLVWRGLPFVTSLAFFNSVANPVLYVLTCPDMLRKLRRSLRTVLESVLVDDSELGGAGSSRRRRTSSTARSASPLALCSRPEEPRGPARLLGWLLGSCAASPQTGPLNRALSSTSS
Experiment: Radioligand binding assay ([3H]PGD2 competition, HEK-hCRTH2 membranes)
Conditions: [3H]PGD2 binding, rated A-E (Table A)
property.measured: Ki

O=C(O)CCCCc1nc2cc(C(=O)N[C@@H](CCO)c3ccccc3)ccc2nc1-c1ccc(Cl)cc1 [16AR]: 2.1 to 20 nM
CC(CCc1nc2cc(C(=O)NCc3ccc(OC(F)(F)F)cc3)ccc2nc1-c1ccc(C(F)(F)F)cc1)CC(=O)O (stereo not shown) [17Y]: 2.1 to 20 nM
Cc1cnnn1C1CCN(C(=O)c2ccc3nc(-c4ccccc4)c(CCCCC(=O)O)nc3c2)CC1 [15BR]: 0.1 to 2 nM
CC(CCc1nc2cc(C(=O)N3CC(c4ccccc4)C3)ccc2nc1-c1ccc(C(F)(F)F)cc1)CC(=O)O (stereo not shown) [17W]: 0.1 to 2 nM
O=C(O)Cc1cccc(CCc2nc3cc(C(=O)N4CCC(c5ccccc5)CC4)ccc3nc2-c2ccc(F)cc2)c1: 2.1 to 20 nM
C[C@@H](NC(=O)c1ccc2nc(-c3ccccc3)c(CCCCC(=O)O)nc2c1)c1ccc(Cl)cc1 [15AX]: 2.1 to 20 nM
C[C@@H](NC(=O)c1ccc2nc(-c3ccc(C(F)(F)F)cc3)c(CCCCC(=O)O)nc2c1)c1ccccn1: 2.1 to 20 nM
C[C@H](NC(=O)c1ccc2nc(-c3ccc(F)cc3)c(CCCCC(=O)O)nc2c1)c1ccc(F)cc1: 2.1 to 20 nM
O=C(O)CCCCc1nc2cc(C(=O)N3CC[C@H](c4ccccc4)C3)ccc2nc1-c1ccccc1: 2.1 to 20 nM
C[C@@H](NC(=O)c1cnc2nc(-c3ccccc3)c(CCCCC(=O)O)nc2c1)c1ccccc1 [14F]: 20.1 to 200 nM
O=C(O)CCCCc1nc2cc(C(=O)C3CC3)ccc2nc1-c1ccccc1: 0.1 to 2 nM
CCNC(=O)c1ccc2nc(-c3ccccc3)c(CCCCC(=O)O)nc2c1 [15AS]: 2.1 to 20 nM
O=C(O)CCCCc1nc2cc(C(=O)N[C@@H]3CCCc4cc(F)ccc43)ccc2nc1-c1ccccc1 [compound 40]: 2.1 to 20 nM
O=C(O)CCCCc1nc2cc(C(=O)N3CC(c4nc5ccccc5o4)C3)ccc2nc1-c1ccccc1 [31C]: 2.1 to 20 nM
CC(CCCc1nc2cc(C(=O)NC3Cc4ccccc4C3)ccc2nc1-c1ccc(C(F)(F)F)cc1)C(=O)O (stereo not shown) [18G]: 0.1 to 2 nM
CC(C)(NC(=O)c1ccc2nc(-c3ccccc3)c(CCCCC(=O)O)nc2c1)c1ccccc1 [15X]: 0.1 to 2 nM

----------
molecular target: hCRTH2 (Homo sapiens, UniProt Q9Y5Y4); construct: expressed in transfected cells; host or cells: HEK (human embryonic kidney) cells expressing hCRTH2; membrane preparation; assay: Radioligand binding assay ([3H]PGD2 competition, HEK-hCRTH2 membranes); conditions: [3H]PGD2 binding, rated A-E (Table A)
Entries annotated with measured Ki
property.measured: Ki

O=C(O)CCCCc1nc2cc(C(=O)NCc3cccc(Cl)c3)ccc2nc1-c1ccccc1 [15U]: 2.1 to 20 nM
C[C@@H](NC(=O)c1ccc2nc(CCCCC(=O)O)c(-c3ccccc3)nc2c1)c1ccc(F)cc1: 20.1 to 200 nM
O=C(O)CCCCc1nc2cc(C(=O)NCc3ccncc3)ccc2nc1-c1ccccc1 [15AH]: 20.1 to 200 nM
CC(CCCc1nc2cc(C(=O)N3CCC(c4ccccc4)CC3)ccc2nc1-c1ccc(F)cc1)C(=O)O (centres unmarked): 2.1 to 20 nM
O=C(O)CCCCc1nc2cc(C(=O)Nc3ccccc3F)ccc2nc1-c1cccc(F)c1: 201 to 700 nM
C[C@@H](c1ccc(F)cc1)N(C)C(=O)c1ccc2nc(-c3ccccc3)c(CCCCC(=O)O)nc2c1: 2.1 to 20 nM
O=C(O)CCCCc1nc2cc(C(=O)N3CCCC(c4ccccc4)C3)ccc2nc1-c1ccc(Cl)cc1 (centres unmarked): 2.1 to 20 nM
O=C(O)CCCCc1nc2cc(C(=O)C3CC3)ccc2nc1-c1cccc(F)c1: 2.1 to 20 nM

----------
target: hCRTH2 (Homo sapiens); construct: expressed in transfected cells; host or cells: HEK (human embryonic kidney) cells expressing hCRTH2; membrane preparation; assay: Radioligand binding assay ([3H]PGD2 competition, HEK-hCRTH2 membranes); settings: [3H]PGD2 binding, values in text
Ki vs 3 nM: less than gives condition met; not less than gives condition not met.

O=C(O)CCCCc1nc2cc(C(=O)C3CC3)ccc2nc1-c1ccccc1: condition met
O=C(O)CCCCc1nc2cc(C(=O)C3CC3)ccc2nc1-c1cccc(F)c1: condition not met
O=C(O)CCCCc1nc2cc(C(=O)N3CC(c4cccc(F)c4)C3)ccc2nc1-c1ccccc1: condition met
O=C(O)CCCCc1nc2cc(C(=O)Nc3ccccc3F)ccc2nc1-c1ccc(F)cc1: condition not met
C[C@H](NC(=O)c1ccc2nc(-c3ccccc3)c(CCCCC(=O)O)nc2c1)c1cncc2ccccc12: condition not met
CN(Cc1ccccc1)C(=O)c1ccc2nc(-c3ccccc3)c(CCCCC(=O)O)nc2c1 [15Ao]: condition met
C[C@@H](NC(=O)c1ccc2nc(-c3ccc(Cl)cc3)c(CCCCC(=O)O)nc2c1)c1cccc(Cl)c1: condition met
O=C(O)CCCCc1nc2cc(C(=O)N[C@@H]3CCCc4ccccc43)ccc2nc1-c1ccc(F)cc1: condition met
C[C@@H](NC(=O)c1ccc2nc(-c3ccccc3)c(CCCCC(=O)O)nc2c1)c1ccccc1C(F)(F)F [15BL]: condition not met
C[C@@H](CCc1nc2cc(C(=O)N[C@H](C)c3ccc(F)cc3)ccc2nc1-c1ccc(F)cc1)CC(=O)O: condition not met
O=C(O)CCCCc1nc2cc(C(=O)N3CC(c4ccccc4)C3)ccc2nc1-c1ccc(F)cc1: condition met
O=C(N[C@@H]1CCCc2cc(F)ccc21)c1ccc2nc(-c3ccc(F)cc3)c(CCC3CC3C(=O)O)nc2c1 (stereo partly shown): condition not met
O=C(O)Cc1cccc(CCc2nc3cc(C(=O)N[C@@H](CCO)c4ccccc4)ccc3nc2-c2ccc(F)cc2)c1: condition not met
O=C(O)CCCCc1nc2cc(C(=O)N[C@@H]3CCc4ccccc43)ccc2nc1-c1ccc(Cl)cc1 [16Ao]: condition met
C[C@@H]1CN(c2ccc(F)cc2)CCN1C(=O)c1ccc2nc(-c3ccccc3)c(CCCCC(=O)O)nc2c1: condition not met
Cc1cnccc1N1CCN(C(=O)c2ccc3nc(-c4ccc(F)cc4)c(CCCCC(=O)O)nc3c2)CC1: condition not met
O=C(O)CCCCc1nc2cc(C(=O)N[C@H]3CCS(=O)(=O)c4ccccc43)ccc2nc1-c1ccc(F)cc1: condition not met
O=C(O)CCCCc1nc2cc(NC(=O)Cc3ccc(C(F)(F)F)cc3)ccc2nc1-c1ccccc1 [11F]: condition not met
O=C(O)CCCCc1nc2cc(C(=O)N3CC4(CCNCC4)C3)ccc2nc1-c1ccccc1 [15i]: condition not met
O=C(O)CCCCc1nc2cc(C(=O)NC3CCCc4ccccc43)ccc2nc1-c1ccccc1 (stereo not shown) [15AR]: condition met
O=C(O)CCCCc1nc2cc(C(=O)N[C@H](c3ccc(Cl)cc3)C(F)(F)F)ccc2nc1-c1ccc(Cl)cc1 [16V]: condition met
NC(=O)c1ccc2nc(-c3ccccc3)c(CCCCC(=O)O)nc2c1: condition not met
N#Cc1ccc(C2CN(C(=O)c3ccc4nc(-c5ccc(F)cc5)c(CCCCC(=O)O)nc4c3)C2)cc1: condition met
O=C(O)CCCNc1nc2cc(C(=O)N3CCN(c4ccc(F)cc4)CC3)ccc2nc1-c1ccccc1 [44H]: condition not met
O=C(O)Cc1ccc(CCc2nc3cc(C(=O)NCc4cccc(Cl)c4)ccc3nc2-c2ccc(Cl)cc2)cc1: condition not met
O=C(O)Cc1cccc(CCc2nc3cc(C(=O)NCc4ccc(F)cc4)ccc3nc2-c2ccc(F)cc2)c1: condition not met
CC(c1ccon1)N(C)C(=O)c1ccc2nc(-c3ccc(Cl)cc3)c(CCCCC(=O)O)nc2c1 (stereo not shown): condition not met
C[C@H](NC(=O)c1ccc2nc(-c3ccc(C(F)(F)F)cc3)c(CCCCC(=O)O)nc2c1)c1ccccn1: condition not met
O=C(O)CCCCc1nc2cc(C(=O)N[C@H]3CCOc4ccccc43)ccc2nc1-c1ccc(Cl)cc1: condition met
C[C@@H](CCc1nc2cc(C(=O)N(C)Cc3ccc(F)cc3)ccc2nc1-c1ccccc1)CC(=O)O: condition not met
O=C(O)CCCCc1nc2cc(C(=O)N[C@@H](c3ccc(Cl)cc3)C(F)(F)F)ccc2nc1-c1ccc(Cl)cc1 [16W]: condition met

The reported numbers originate from patent US9469615B2.
